meta.source: patent US20210355194A1

target: ACE2 (human, UniProt Q9BYF1 18-740)
Sequence (Q9BYF1 18-740 limits assumed): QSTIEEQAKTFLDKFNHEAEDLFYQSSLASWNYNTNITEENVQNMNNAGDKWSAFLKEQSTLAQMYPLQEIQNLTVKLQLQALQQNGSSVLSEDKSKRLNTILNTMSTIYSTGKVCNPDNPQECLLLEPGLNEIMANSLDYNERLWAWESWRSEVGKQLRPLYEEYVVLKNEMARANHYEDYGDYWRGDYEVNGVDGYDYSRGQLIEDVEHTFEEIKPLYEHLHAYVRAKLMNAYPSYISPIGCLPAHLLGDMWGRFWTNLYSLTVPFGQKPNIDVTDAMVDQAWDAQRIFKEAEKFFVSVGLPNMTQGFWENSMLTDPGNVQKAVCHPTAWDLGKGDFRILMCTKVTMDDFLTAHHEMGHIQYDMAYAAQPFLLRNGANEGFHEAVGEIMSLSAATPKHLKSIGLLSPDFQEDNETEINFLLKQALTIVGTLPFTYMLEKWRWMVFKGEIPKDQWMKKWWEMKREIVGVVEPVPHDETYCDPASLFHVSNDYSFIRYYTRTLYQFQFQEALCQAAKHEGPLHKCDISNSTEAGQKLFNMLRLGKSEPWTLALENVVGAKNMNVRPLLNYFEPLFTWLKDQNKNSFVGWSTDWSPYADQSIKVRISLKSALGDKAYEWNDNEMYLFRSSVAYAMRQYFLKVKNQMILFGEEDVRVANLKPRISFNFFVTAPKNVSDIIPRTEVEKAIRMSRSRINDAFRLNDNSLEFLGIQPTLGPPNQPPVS
REPORTED_ENDPOINT: kon (M⁻¹ s⁻¹)

| BINDER | REPORTED_ENDPOINT | REPORTED_RESULT |
| --- | --- | --- |
| ACE2 variant antibody 4-52 (VHH) VHH: EVQLVESGGGLVQPGGSLRLSCAASGRSFSNSVMGWFRQAPGKEREFVARITWNGGSTYYADSVKGRFTISADNSKNTAYLQMNSLKPEDTAVYYCATTENPNPRWGQGTLVTVSS | kon | 126000 |
| ACE2 variant antibody 4-95 (VHH) VHH: EVQLVESGGGLVQPGGSLRLSCAASGRTFGDYIMGWFRQAPGKEREIVAAINWSAGYTAYADSVKGRFTISADNSKNTAYLQMNSLKPEDTAVYYCATAPPLFCWHFDHWGQGTLVTVSS | kon | 415000 |
| ACE2 variant antibody 4-62 (VHH) VHH: EVQLVESGGGLVQPGGSLRLSCAASGRTFSDDTMGWFRQAPGKEREFVAAINWSGGSTDYADSVKGRFTISADNSKNTAYLQMNSLKPEDTAVYYCATDPPLFWGQGTLVTVSS | kon | 245000 |
| ACE2 variant antibody 4-76 (VHH) VHH: EVQLVESGGGLVQPGGSLRLSCAASGRTFGDYAMGWFRQAPGKERELVAPINWSGGSTYYADSVKGRFTISADNSKNTAYLQMNSLKPEDTAVYYCATDPPLFWGQGTLVTVSS | kon | 135000 |
